Biological target: BCL-XL (Homo sapiens, UniProt Q07817)
Construct: endogenous in cells; host or cells: MOLT-4
Sequence (Q07817 whole entry): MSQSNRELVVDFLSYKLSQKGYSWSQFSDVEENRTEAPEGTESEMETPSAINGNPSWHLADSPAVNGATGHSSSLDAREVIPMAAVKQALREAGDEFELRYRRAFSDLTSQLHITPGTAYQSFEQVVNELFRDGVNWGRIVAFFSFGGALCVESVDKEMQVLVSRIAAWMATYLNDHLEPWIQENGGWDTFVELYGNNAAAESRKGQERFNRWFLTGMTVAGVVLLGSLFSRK
Experiment: Bcl-xL ELISA degradation in MOLT-4 cells, 6 h
Format: cell-based
QUANTITY: Dmax

{"COMPOUND": "Cc1ncsc1-c1ccc([C@H](C)NC(=O)[C@@H]2C[C@@H](O)CN2C(=O)[C@@H](NC(=O)CCCS(=O)(=O)NC(=O)c2nc(N3CCc4cccc(C(=O)Nc5nc6ccccc6s5)c4C3)ccc2-c2cnn(CC3CCCCC3)c2C)C(C)(C)C)cc1 [I-304]", "Dmax": "> 75%"}

Recall the recorded Dmax for C#Cc1ccc([C@H](C)NC(=O)[C@@H]2C[C@@H](O)CN2C(=O)[C@@H](NC(=O)CCCCCS(=O)(=O)NC(=O)c2nc(N(C)c3cc(C)c(Nc4nc5cccnc5s4)nn3)ccc2-c2cnn(CC34CC5CC(CC(C5)C3)C4)c2C)C(C)(C)C)cc1 [I-447] with BCL-XL (Homo sapiens, UniProt Q07817) and state it.
> 75%

====

Biological target: BCL-XL (Homo sapiens, UniProt Q07817)
Construct: endogenous in cells; host or cells: MOLT-4
Experiment: Bcl-xL ELISA degradation in MOLT-4 cells, 6 h
Type: cell-based
QUANTITY: Dmax

The cases that follow already have their Dmax on record.
{"SMILES TEXT": "Cc1ncsc1-c1ccc([C@H](C)NC(=O)[C@@H]2C[C@@H](O)CN2C(=O)[C@@H](NC(=O)C2CCN(c3ccc(S(=O)(=O)NC(=O)c4nc(N5CCc6cccc(C(=O)Nc7nc8ccccc8s7)c6C5)ccc4-c4cnn(CC5CCCCC5)c4C)cc3Cl)CC2)C(C)(C)C)cc1", "Dmax": "50 to 75%"}
{"SMILES TEXT": "Cc1ncsc1-c1ccc(CNC(=O)[C@@H]2C[C@@H](O)CN2C(=O)[C@@H](NC(=O)CCc2cc(F)c(S(=O)(=O)NC(=O)c3nc(N4CCc5cccc(C(=O)Nc6nc7ccccc7s6)c5C4)ccc3-c3cnn(CC4CCCCC4)c3C)c(F)c2)C(C)(C)C)cc1", "Dmax": "> 75%"}
{"SMILES TEXT": "Cc1ncsc1-c1ccc(CNC(=O)[C@@H]2C[C@@H](O)CN2C(=O)[C@@H](NC(=O)C2CN(CCS(=O)(=O)NC(=O)c3nc(N4CCc5cccc(C(=O)Nc6nc7ccccc7s6)c5C4)ccc3-c3cnn(CC4CCCCC4)c3C)C2)C(C)(C)C)cc1", "Dmax": "> 75%"}

Looking for the measured Dmax of Cc1ncsc1-c1ccc([C@H](C)NC(=O)[C@@H]2C[C@@H](O)CN2C(=O)[C@@H](NC(=O)CCCCCS(=O)(=O)NC(=O)c2nc(N3CCc4cccc(C(=O)Nc5nc6ccccc6s5)c4C3)ccc2-c2cccc(OC(C)C)c2C)C(C)(C)C)cc1 , can you help?
50 to 75%

====

Target: BCL-XL (Homo sapiens)
Construct: endogenous in cells; host or cells: MOLT-4
Test: Bcl-xL ELISA degradation in MOLT-4 cells, 6 h
Type: cell-based
QUANTITY: Dmax

The cases that follow already have their Dmax on record.
{"MOLECULE": "C#Cc1ccc(CNC(=O)[C@@H]2C[C@@H](O)CN2C(=O)[C@@H](NC(=O)CCCCCS(=O)(=O)NC(=O)c2nc(N(C)c3cc(C)c(Nc4nc5ccccc5s4)nn3)ccc2-c2cnn(CC34CC5CC(CC(C5)C3)C4)c2C)C(C)(C)C)cc1", "Dmax": "> 75%"}
{"MOLECULE": "Cc1ncsc1-c1ccc(CNC(=O)[C@@H]2C[C@@H](O)CN2C(=O)[C@@H](NC(=O)C2(F)CC2)C(C)(C)C)c(OCCCCCCNCc2nc(N3CCc4cccc(C(=O)Nc5nc6ccccc6s5)c4C3)ccc2-c2cnn(CC3CCCCC3)c2C)c1", "Dmax": "< 50%"}
{"MOLECULE": "Cc1ncsc1-c1ccc([C@H](C)NC(=O)[C@@H]2C[C@@H](O)CN2C(=O)[C@@H](c2cc(OC3CCN([C@H]4CC[C@H](NC(=O)c5nc(N6CCc7cccc(C(=O)Nc8nc9ccccc9s8)c7C6)ccc5-c5cnn(CC6CCCCC6)c5C)CC4)CC3)no2)C(C)C)cc1", "Dmax": "< 50%"}

Looking for the measured Dmax of Cc1ncsc1-c1ccc([C@H](C)NC(=O)[C@@H]2C[C@@H](O)CN2C(=O)C(c2cc(OC3CCN(CCCCNC(=O)c4nc(N5CCc6cccc(C(=O)Nc7nc8ccccc8s7)c6C5)ccc4-c4cnn(CC5CCCCC5)c4C)CC3)no2)C(C)C)cc1 (stereo partly shown) , can you help?
< 50%

Hello, the source for this data is patent US20250197387A1, in case you need it.
